Would you mind telling me the reported z-score of each entry?
# Assay remarks: cell viability in Huh7 cells, primary screen, cytotoxicity control for HCV replication inhibitor project, CellTiter-Glo luminescence, basal, 48 h (AID 1143);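 also: Huh7 hepatoma cells carrying a hepatitis C replication reporter with no stimulus; test concentration not given here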
# Test parameters: Huh7 HCV replicon, higher = more signal, called active from +8 up or from −8 down
Activity calls are given as the source filed them.

Known results for molecules:
[
  {
    "Molecule": "CCOc1cc(C(O)C2C=CC3C(=O)N(c4ccccc4)C(=O)C3N2Nc2ccc(C#N)cc2)ccc1O (stereo not drawn)",
    "Property": "z-score",
    "Measured": "0.423 (inactive)"
  },
  {
    "Molecule": "CCCNC(=O)[C@@H]1c2ccccc2C(=O)N(C(C)C)[C@H]1c1ccc(CO)cc1",
    "Property": "z-score",
    "Measured": "-0.0095 (inactive)"
  },
  {
    "Molecule": "CCCCC=C[C@@H](NC(=O)c1ccc(-c2ccccc2)cc1)c1ccccc1",
    "Property": "z-score",
    "Measured": "-1.76 (inactive)"
  },
  {
    "Molecule": "O=C1c2ccccc2[C@](Cc2ccccc2I)(C(=O)NCC(F)(F)F)[C@H](c2ccc(CO)cc2)N1C1CCCCC1",
    "Property": "z-score",
    "Measured": "-0.772 (inactive)"
  },
  {
    "Molecule": "CCCCC(=C=CC[C@@H](O)c1ccccc1OCCO)C[C@@H](O)COCc1ccccc1",
    "Property": "z-score",
    "Measured": "-2.16 (inactive)"
  }
]

Go through the items and report each one's z-score.
1. CN(C)CCCCNC(=O)[C@@H]1C[C@@H]2C(=O)N[C@@H](Cc3ccccc3)C(=O)N2[C@@H]1c1cccc(OCCO)c1
2. CCOC(=O)C[C@H]1[C@H](OC(=O)Cc2ccc3c(c2)OCO3)[C@@H](NC(=O)Cc2ccc(OC)cc2)c2cc(OCCCO)ccc2N1C(=O)c1ccc2ccccc2n1
3. COC(=O)CCCCCCC(=O)Nc1ccc(NC(=O)CCCC[P+](c2ccccc2)(c2ccccc2)c2ccccc2)cc1

Reply:
-1.6 (inactive)
-0.823 (inactive)
-0.238 (inactive)

----------
Give z-score for every item shown.
# Measured target: Luciferin 4-monooxygenase (Photinus pyralis) (UniProt P08659)
# Sequence (P08659 whole entry, looked up): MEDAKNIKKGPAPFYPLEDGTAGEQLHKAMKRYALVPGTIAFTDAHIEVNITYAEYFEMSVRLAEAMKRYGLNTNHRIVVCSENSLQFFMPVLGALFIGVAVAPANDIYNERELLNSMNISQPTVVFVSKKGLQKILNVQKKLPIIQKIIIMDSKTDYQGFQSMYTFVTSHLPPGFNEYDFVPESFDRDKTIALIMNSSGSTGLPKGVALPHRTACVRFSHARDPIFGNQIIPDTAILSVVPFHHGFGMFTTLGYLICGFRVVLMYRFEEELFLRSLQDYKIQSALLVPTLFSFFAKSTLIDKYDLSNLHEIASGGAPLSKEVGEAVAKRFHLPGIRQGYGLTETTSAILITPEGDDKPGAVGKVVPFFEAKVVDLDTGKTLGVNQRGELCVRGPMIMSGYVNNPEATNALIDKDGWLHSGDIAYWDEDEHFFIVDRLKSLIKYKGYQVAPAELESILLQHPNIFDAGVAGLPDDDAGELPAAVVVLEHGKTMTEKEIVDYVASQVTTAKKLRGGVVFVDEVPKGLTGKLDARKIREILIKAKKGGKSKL
# Assay remarks: firefly luciferase enzyme inhibitors, primary screen, biochemical, luminescence, purified enzyme, 2006 set (AID 1141);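 also: cell-free assay with purified firefly luciferase at 100 ng per well in PBS; test concentration not given here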
# Test parameters: SteadyGlo luminescence, 30 min, higher = more signal, called active from +8 up or from −8 down
Answers are plain numbers.

[
  {
    "Chemical string": "[N-]=[N+]=Nc1ccccc1[C@H]1OC(c2ccc(OCCCO)cc2)=N[C@@]1(Cc1ccccc1)C(=O)N1CCCCC1",
    "Property": "z-score",
    "Measured": -6.62
  },
  {
    "Chemical string": "CCCNC(=O)[C@@H]1c2ccccc2C(=O)N(C(C)C)[C@H]1c1ccc(CO)cc1",
    "Property": "z-score",
    "Measured": 0.407
  },
  {
    "Chemical string": "COc1cc(CO)cc(I)c1O[C@H]1C=C(C(=O)NCCO)C[C@@H](NCc2ccc(F)cc2)[C@@H]1O",
    "Property": "z-score",
    "Measured": -0.0701
  }
]

Proceeding to the next compound to report its z-score.
Task item: GET /values?readout=z-score&system=Luciferin 4-monooxygenase (Photinus pyralis) (UniProt P08659)&item= "O=C(NCC(F)(F)F)[C@@H]1c2ccccc2C(=O)N(Cc2ccc(OC(F)(F)F)cc2)[C@H]1c1ccc(CO)cc1"
Reply: 1.36
